Measured values drawn from paper PMC7242238 for this set.

- Type: in vivo, human
- Experimental parameters: male, human, plasma, oral, 0.4 mg
Observation type: AUC(0-t) (ng·h/mL)
Quick note: give the figure in ng·h/mL, leave out the unit.

get_value(item= CC(C)(NC(=O)C1=C(O)[C@@H]2Oc3c(O)ccc4c3[C@@]23CCN(CC2CC2)[C@H](C4)[C@]3(O)C1)c1nc(-c2ccccc2)no1 [Naldemedine] , readout=AUC(0-t)) returns 38.6

* * *

- Format: in vivo, human
- Experimental parameters: human, plasma, oral, 0.2 mg
Observation type: Tmax
Write your answer as a measured quantity: the number, then the unit.

Query CC(C)(NC(=O)C1=C(O)[C@@H]2Oc3c(O)ccc4c3[C@@]23CCN(CC2CC2)[C@H](C4)[C@]3(O)C1)c1nc(-c2ccccc2)no1 yields Tmax of 45 min

* * *

- Type: in vivo, human
- Experimental parameters: male, human, plasma, oral, 0.4 mg
Observation type: Cmax (ng/mL)
The reply should be a number in ng/mL, with the unit left off.

Cmax recorded for this compound, CC(C)(NC(=O)C1=C(O)[C@@H]2Oc3c(O)ccc4c3[C@@]23CCN(CC2CC2)[C@H](C4)[C@]3(O)C1)c1nc(-c2ccccc2)no1 [Naldemedine] , is 4.86

* * *

- Type: in vivo, human
- Experimental parameters: human, plasma, oral, 0.2 mg, t1/2,z, Cohort 1: naldemedine 0.2 mg alone or with itraconazole 200 mg; n = 14; geometric mean (CV %)
Observation type: half-life (h)
The reply should be a number in h, with the unit left off.

Entry CC(C)(NC(=O)C1=C(O)[C@@H]2Oc3c(O)ccc4c3[C@@]23CCN(CC2CC2)[C@H](C4)[C@]3(O)C1)c1nc(-c2ccccc2)no1 [Naldemedine] ; half-life = 10.4

* * *

- Experiment notes: CYP3A inducer study: pharmacokinetics of naldemedine alone or with rifampin
- Type: in vivo, human
- Experimental parameters: human, plasma, oral, 0.2 mg, λz, naldemedine 0.2 mg alone or with rifampin 600 mg QD; n = 14; geometric mean (CV %)
Observation type: k el (s⁻¹)
Form entry: value (s⁻¹) — number only.

The compound identified as CC(C)(NC(=O)C1=C(O)[C@@H]2Oc3c(O)ccc4c3[C@@]23CCN(CC2CC2)[C@H](C4)[C@]3(O)C1)c1nc(-c2ccccc2)no1 registered its k el at 1.64e-05

* * *

- Type: in vivo, human
- Experimental parameters: human, plasma, oral, 0.2 mg, AUC0–inf, Cohort 1: naldemedine 0.2 mg alone or with itraconazole 200 mg; n = 14; geometric mean (CV %)
Observation type: AUC(0-inf) (ng·h/mL)
Return type: number; implicit unit ng·h/mL.

What the record says about CC(C)(NC(=O)C1=C(O)[C@@H]2Oc3c(O)ccc4c3[C@@]23CCN(CC2CC2)[C@H](C4)[C@]3(O)C1)c1nc(-c2ccccc2)no1 [Naldemedine] : AUC(0-inf) is 27

* * *

- Experiment notes: CYP3A inducer study: pharmacokinetics of naldemedine alone or with rifampin
- Type: in vivo, human
- Experimental parameters: human, plasma, oral, 0.2 mg, AUC0–inf, naldemedine 0.2 mg alone or with rifampin 600 mg QD; n = 14; mean (SD)
Observation type: AUC(0-inf) (ng·h/mL)
# unit: ng·h/mL | format: bare number

response.value for CC(C)(NC(=O)C1=C(O)[C@@H]2Oc3c(O)ccc4c3[C@@]23CCN(CC2CC2)[C@H](C4)[C@]3(O)C1)c1nc(-c2ccccc2)no1 (field: AUC(0-inf)) = 22.1
